RECORDED ENDPOINT: intrinsic clearance, rat liver microsomes (mL/min/kg)

[I] Cc1nc2n(c1CN1CCN(c3ncccn3)CC1)CCCC2
[II] Cc1c[nH]c(=O)n1-c1ccc(C(=O)Nc2ccc3ccccc3n2)cc1
[III] Cn1ccc(CN2C(=O)c3ccccc3C2=O)cc1=O
[IV] Cc1cc(NCc2ccnc(N3CCCC3)c2)c2ccccc2n1
[V] O=C(Nc1nc2c(s1)COc1ccccc1-2)c1cnc(Cl)c(Cl)c1
# ascending order, key=intrinsic clearance, rat liver microsomes Respond with the label ranking, as requested.
III, II, V, I, IV
(III: 12.1 mL/min/kg, II: 49.4 mL/min/kg, V: 279 mL/min/kg, I: 1180 mL/min/kg, IV: 5470 mL/min/kg)

---

RECORDED ENDPOINT: fraction unbound, human plasma

The following compounds have reported results that may help.
# COMPOUND, fraction unbound, human plasma
rows = [
    ("Cn1c(-c2n[nH]c3c2CCCC3)nnc1N1CCC2(CNC(=O)C2)C1 (stereo not given)", 0.621),
    ("CN1[C@@H]2CC[C@H]1C[C@H](OC(c1ccccc1)c1ccccc1)C2", 0.128),
]

[P] CC(C)[C@H](CO)Nc1nc(Nc2cc(N)cc(Cl)c2)c2ncn(C(C)C)c2n1
[Q] COc1cc2c(cc1OC)CC(=O)N(CCCN(C)C[C@H]1Cc3cc(OC)c(OC)cc31)CC2
[R] C[C@H]1CN(C2COC2)CCN1c1ccc(Nc2cc(-c3ccnc(N4CCn5c(cc6c5CC(C)(C)C6)C4=O)c3CO)cn(C)c2=O)nc1
Order each entry by recorded fraction unbound, human plasma, climbing from the minimum. Respond with the label ranking, as requested.
P, R, Q
(P: 0.00867, R: 0.162, Q: 0.538)

---

RECORDED ENDPOINT: intrinsic clearance, rat liver microsomes (mL/min/kg)

The following molecules have reported results that may help.
# SMILES RECORD, MEASURED RESULT
rows = [
    ("O=C(NC1CCCC1)C(=O)c1ccc2c(c1)CCC2", 908),
    ("NC(=O)c1cccc(Cn2cnc3c(oc4ccccc43)c2=O)c1", 19),
    ("O=C(CSCCc1ccccn1)Nc1ccccc1", 2670),
]

[I] CC(C)NC(=O)C1(Cc2ccccc2-c2ccncc2)CCOCC1
[II] Cc1nc(Cc2ccccc2)sc1C(=O)Nc1cccc(-c2ccn[nH]2)c1
[III] CCCC(=O)Nc1ccc(C)c2ncccc12
[IV] COCCc1nc(-c2ccccc2-c2ccccc2)n(CCO)n1
[V] CC(C)NC(=O)CN(C)c1ccc(Cl)c(C#N)n1
Order each entry by recorded intrinsic clearance, rat liver microsomes, climbing from the minimum. Respond with the label ranking, as requested.
III, V, IV, II, I
(III: 28.1 mL/min/kg, V: 87.1 mL/min/kg, IV: 182 mL/min/kg, II: 406 mL/min/kg, I: 981 mL/min/kg)

[A] CCn1c(COC(=O)c2ccc(C)s2)nc2cc(S(=O)(=O)N3CCCCC3)ccc21
[B] N#Cc1ccc2ncnc(N[C@H]3CC[C@H](N4CCOCC4)CC3)c2c1
[C] CC(C)(CNc1cnn(CCO)c1)c1ccccc1
[D] Cc1ccc(OCc2noc(-c3ccsc3)n2)cn1
Hey, quick one: sort these by intrinsic clearance, rat liver microsomes, largest value first please. Respond with the label ranking, as requested.
A, C, D, B
(A: 770 mL/min/kg, C: 324 mL/min/kg, D: 204 mL/min/kg, B: 49.2 mL/min/kg)

[I] Cn1cc(CN2CCN(c3ccccc3O)CC2)c(-c2ccncc2)n1
[II] CC(C)Cn1c(=O)[nH]c(=O)c2c1nc1n2CCCCC1
Please indicate which entry, I or II , has the lower recorded intrinsic clearance, rat liver microsomes value. # answer = label of selected item
II
(II: 28.2 mL/min/kg, I: 374 mL/min/kg)

[P] C[C@@H](CN1CCC(n2c(=O)[nH]c3cc(Cl)ccc32)CC1)NC(=O)c1ccc2ccccc2c1
[Q] O=C(Nc1nc2ccccc2[nH]1)c1ccncc1
[R] COc1cccc2c1OC(C)(C)[C@@H]1C[C@H]3CNCC[C@H]3O[C@@H]21
[S] CCn1nccc1CNc1nnc(-c2ccc(OC)cc2)o1
Order each entry by recorded intrinsic clearance, rat liver microsomes, climbing from the minimum. Respond with the label ranking, as requested.
R, S, Q, P

---

EXPERIMENTAL CONTEXT: pH 6.8
RECORDED ENDPOINT: aqueous solubility (µg/mL)

# SMILES RECORD, aqueous solubility, µg/mL
records = [
    ("Cc1ccc(CC(=O)Nc2nc(C)no2)cn1", 42.8),
]

[P] Cc1cc(-c2cnn(CCNC(=O)c3sc(C)nc3C)c2C2CC2)on1
[Q] N#Cc1c(O)nc(SCc2cccc(F)c2F)nc1C1CC1
Please indicate which entry, P or Q , has the lower recorded aqueous solubility value. # answer = label of selected item
Q

[a] COc1cc(CNCCN2CCOCC2)cc(Cl)c1OCc1ccccc1
[b] Cc1ccc(NC(=O)c2cc(-c3ccccn3)nc3ccccc23)nc1
[c] CS(=O)(=O)CCc1nc(C2(c3ccccc3)CC2)nn1-c1ccccc1
[d] COc1ccc(CN2CCc3nc(-c4cccnc4)nc(O)c3C2)c(C)c1C
[e] COCCc1nc(CCCn2cccn2)n(C2Cc3ccccc3C2)n1
Hey, quick one: sort these by aqueous solubility, largest value first please. Respond with the label ranking, as requested.
a, c, e, d, b

[I] Cc1sc(C)c(C(=O)NC2(c3ccc(C(=O)O)cc3)CC2)c1Cc1ccc(C(F)(F)F)cc1
[II] CN(C)Cc1ccc(-c2ccccc2C(=O)O)cc1
[III] Cc1cccnc1NC(=O)Cc1coc2c(C)c(C)ccc12
Hey, quick one: sort these by aqueous solubility, largest value first please. Respond with the label ranking, as requested.
III, I, II
(III: 74.7 µg/mL, I: 51.4 µg/mL, II: 30.5 µg/mL)

---

EXPERIMENTAL CONTEXT: pH 6.8
RECORDED ENDPOINT: aqueous solubility (µg/mL)

The following molecules have reported results that may help.
# MOLECULE, aqueous solubility [µg/mL]
data = [
    ("CN(Cc1cnccn1)C(=O)c1cc(-c2ccc(F)cc2)on1", 16),
    ("Cn1c(=O)n(C2CCCC2)c(=O)c2c(F)cccc21", 26),
]

[I] CSc1ccc(NC(=O)Cn2nc(C3CC3)ccc2=O)cc1
[II] CCc1cnc(CNC(=O)N2CCC(n3cncn3)CC2)s1
[III] CCc1nc(C)cn2nc(-c3cc(=O)n4cc(C5CCN(C)CC5)cc(C)c4n3)cc12
[IV] CCCNC(=O)c1c(C)nn(-c2ccccc2)c1C
Hey, quick one: sort these by aqueous solubility, largest value first please. Respond with the label ranking, as requested.
II, IV, III, I
(II: 49.4 µg/mL, IV: 30.7 µg/mL, III: 17.7 µg/mL, I: 4.75 µg/mL)

[a] O=C(Nc1nc(-c2cccnc2)cs1)C1CCCCC1
[b] O=C(CN1CCCN(c2ccc(C(F)(F)F)cn2)CC1)Nc1ccccc1F
[c] O=C(c1cnc(-c2ccccc2)s1)N1CCOC2(CCCC2)C1
[d] O=C(Nc1ccc(S(=O)(=O)Nc2ccnn2-c2ccccc2)cc1)c1ccco1
[e] CC(C)(C)c1cc(NC(=O)c2cccc3cn[nH]c23)[nH]n1
Order each entry by recorded aqueous solubility, climbing from the minimum. Respond with the label ranking, as requested.
a, e, b, c, d

[1] Cc1cccc(NC(=O)c2ccccc2-c2ccccc2)n1
[2] NC(=O)COc1ncnc2ccccc12
Please indicate which entry, 1 or 2 , has the lower recorded aqueous solubility value. # answer = label of selected item
1

[P] Cc1cc(C)cc(C(=O)NCCCNc2ncccn2)c1
[Q] Cc1cccc(NC(=O)CN2CCCN(c3ccc(C(F)(F)F)cn3)CC2)c1
[R] Cc1ccc2c(c1)c1nc3ccccc3nc1n2CC(N)=O
Hey, quick one: sort these by aqueous solubility, largest value first please. Respond with the label ranking, as requested.
P, Q, R
(P: 52.5 µg/mL, Q: 25.7 µg/mL, R: 0.16 µg/mL)

[A] C[C@@H]1CN(C(=O)CC(c2ccccc2)c2ccccc2)C[C@H](C)O1
[B] CONC(=O)c1ccccc1Nc1cc(Nc2cc(C)nn2C(C)C)ncc1Cl
Please indicate which entry, A or B , has the lower recorded aqueous solubility value. # answer = label of selected item
B
(B: 24.2 µg/mL, A: 52.3 µg/mL)

[P] CC(c1ccccc1)N1CC(C(=O)N2CCC(n3c(=O)[nH]c4ccccc43)CC2)CC1=O (stereo not drawn)
[Q] Cc1ccccc1-n1nc(C(C)(C)C)cc1N
Please indicate which entry, P or Q , has the lower recorded aqueous solubility value. # answer = label of selected item
Q

[I] COc1cc(C(C)C)c2c(c1)S(=O)(=O)N(COc1cc(=O)n3cccc(OCCN4CCCCC4)c3n1)C2=O
[II] CN(C)C(=O)COC(=O)Cc1ccc(OC(=O)c2ccc(NC(=N)N)cc2)cc1
Please indicate which entry, I or II , has the lower recorded aqueous solubility value. # answer = label of selected item
I
(I: 53.4 µg/mL, II: 77.6 µg/mL)
